Type: in vivo, human
experimental-parameters: male, human, plasma, oral, 100 mg
parameter: Cmax (ng/mL)

- Cc1cc(C)c2c(c1)[C@@H](N(Cc1cc(C(F)(F)F)cc(C(F)(F)F)c1)c1nnn(C)n1)CCCN2C[C@H]1CC[C@H](C(=O)O)CC1: 777

Where do the numbers come from? From paper PMC4618649.
